Biological target: T1, human TREM2 (human, UniProt Q9NZC2 19-174, limits assumed)
T1 sequence: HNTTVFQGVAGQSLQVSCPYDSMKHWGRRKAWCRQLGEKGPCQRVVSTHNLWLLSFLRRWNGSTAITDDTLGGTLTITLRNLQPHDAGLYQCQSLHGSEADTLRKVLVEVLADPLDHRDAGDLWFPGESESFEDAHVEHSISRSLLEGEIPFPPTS
Experiment: yeast-displayed Fab FACS, 2nd screen 2 nM
Could you mark each record satisfied if its binding signal fold over 6E7 parental falls strictly under 4 fold, and not satisfied if it equals or exceeds it?

Hello, I'm reviewing records and need to know if binding signal fold over 6E7 parental of V27 (Fab, V domains shown) VH: EVQLVQSGAEVKKPGESLKISCKGSGYSFTSYWIAWVRQMPGKGLEWMGIIYPGDSDTRYAPSFQGQVTISADKSISTAYLQWSSLKASDTAMYFCVRSRTFYYDSSDYFDYWGQGTLVTVSS VL: DIQMTQSPSSVSASVGDRVTITCRASQGISSWLAWYQQKPGKAPKLLIYAASSLQRGVPSRFSGSGSGTDFTLTISSLQPEDFATYFCQQADSFPRTFGQGTKLEIK is below 4 fold. Could you check?
not satisfied

Hello, I'm reviewing records and need to know if binding signal fold over 6E7 parental of V61 (Fab, V domains shown) VH: EVQLVQSGAEVKKPGESLKISCKGSGYSFSSYWIAWVRQMPGKGLEWMGIIYPGDSDTRYNPSFQGQVTISADKSISTAYLQWSSLKASDTAMYFCARGRTFYYDSSDYFDYWGQGTLVTVSS VL: DIQMTQSPSSVSASVGDRVTITCRASQGISSWLAWYQQKPGKAPKLLIYAASSLVNGVPSRFSGSGSGTDFTLTISSLQPEDFATYFCQQADSLPRTFGQGTKLEIK is below 4 fold. Could you check?
satisfied

Hello, I'm reviewing records and need to know if binding signal fold over 6E7 parental of V87 (Fab, V domains shown) VH: EVQLVQSGAEVKKPGESLKISCKGSGYSFRSYWIAWVRQMPGKGLEWMGIIYPGDSDVRYSPDFQGQVTISADKSISTAYLQWSSLKASDTAMYFCARSRTFYYDSSDYFDYWGQGTLVTVSS VL: DIQMTQSPSSVSASVGDRVTITCRASQGISSWLAWYQQKPGKAPKLLIYAASSLQWGVPSRFSGSGSGTDFTLTISSLQPEDFATYFCQQADSFPRTFGQGTKLEIK is below 4 fold. Could you check?
not satisfied

Hello, I'm reviewing records and need to know if binding signal fold over 6E7 parental of V65 (Fab, V domains shown) VH: EVQLVQSGAEVKKPGESLKISCKGSGYSFTSYWIAWVRQMPGKGLEWMGIIYPGDSDTRYSPSFQGQVTISADKSISTAYLQWSSLKASDTAMYFCARSRTFYYDSSDYFDYWGQGTLVTVSS VL: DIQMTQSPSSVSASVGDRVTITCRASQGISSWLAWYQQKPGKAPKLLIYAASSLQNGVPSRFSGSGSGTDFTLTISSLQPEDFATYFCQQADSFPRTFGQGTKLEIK is below 4 fold. Could you check?
satisfied

Hello, I'm reviewing records and need to know if binding signal fold over 6E7 parental of V16 (Fab, V domains shown) VH: EVQLVQSGAEVKKPGESLKISCKGSGYSMTSYWIAWVRQMPGKGLEWMGIIYPGDGDTRYSPSFQGQVTISADKSISTAYLQWSSLKASDTAMYFCARSRTFYYDSSDYFDYWGQGTLVTVSS VL: DIQMTQSPSSVSASVGDRVTITCRASQGISSWLAWYQQKPGKAPKLLIYAASNLQNGVPSRFSGSGSGTDFTLTISSLQPEDFATYFCQQADSFPRTFGQGTKLEIK is below 4 fold. Could you check?
satisfied

Hello, I'm reviewing records and need to know if binding signal fold over 6E7 parental of V84 (Fab, V domains shown) VH: EVQLVQSGAEVKKPGESLKISCKGSGYGFTSYWIAWVRQMPGKGLEWMGIIYPGDSDTRYSPSFQGQVTISADKSISTAYLQWSSLKASDTAMYFCARQRTFYYDSSDYSDYWGQGTLVTVSS VL: DIQMTQSPSSVSASVGDRVTITCRASQGISSWLAWYQQKPGKAPKLLIYGASSLQNGVPSRFSGSGSGTDFTLTISSLQPEDFATYFCQQADSFPRTFGQGTKLEIK is below 4 fold. Could you check?
satisfied

Hello, I'm reviewing records and need to know if binding signal fold over 6E7 parental of V86 (Fab, V domains shown) VH: EVQLVQSGAEVKKPGESLKISCKGSGYSFGSYWLAWVRQMPGKGLEWMGIIYPGDSDTRYSPSFEGQVTISADKSISTAYLQWSSLKASDTAMYFCARSRTFYYDSSDYFDYWGQGTLVTVSS VL: DIQMTQSPSSVSASVGDRVTITCRASQGISSWLAWYQQKPGKAPKLLIYAASSRQNGVPSRFSGSGSGTDFTLTISSLQPEDFATYFCQQADSFPRTFGQGTKLEIK is below 4 fold. Could you check?
not satisfied

Hello, I'm reviewing records and need to know if binding signal fold over 6E7 parental of V48 (Fab, V domains shown) VH: EVQLVQSGAEVKKPGESLKISCKGSGYSFGSYWIAWVRQMPGKGLEWMGIIYPGDSDVRYSPSFQGQVTISADKSISTAYLQWSSLKASDTAMYFCARMRTFYYDSSDYFDYWGQGTLVTVSS VL: DIQMTQSPSSVSASVGDRVTITCRASQGISSWLAWYQQKPGKAPKLLIYAASSLQTGVPSRFSGSGSGTDFTLTISSLQPEDFATYFCQQADSLPRTFGQGTKLEIK is below 4 fold. Could you check?
satisfied

Hello, I'm reviewing records and need to know if binding signal fold over 6E7 parental of V85 (Fab, V domains shown) VH: EVQLVQSGAEVKKPGESLKISCKGSGYSFRSYWIAWVRQMPGKGLEWMGTIYPGDSDTRYSPSFQGQVTISADKSISTAYLQWSSLKASDTAMYFCARSRTFYYDSSDYFDYWGQGTLVTVSS VL: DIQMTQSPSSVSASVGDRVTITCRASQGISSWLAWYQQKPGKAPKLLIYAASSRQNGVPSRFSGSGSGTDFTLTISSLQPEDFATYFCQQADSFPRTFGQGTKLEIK is below 4 fold. Could you check?
not satisfied

Hello, I'm reviewing records and need to know if binding signal fold over 6E7 parental of V5 (Fab, V domains shown) VH: EVQLVQSGAEVKKPGESLKISCKGSGYSFTSYWIAWVRQMPGKGLEWMGTIYPGDSDTRYSPSFQGQVTISADKSISTAYLQWSSLKASDTAMYFCARQRTFYYDSSDYFDYWGQGTLVTVSS VL: DIQMTQSPSSVSASVGDRVTITCRASQGISSWLAWYQQKPGKAPKLLIYAASSLQNGVPSRFSGSGSGTDFTLTISSLQPEDFATYFCQQADSHPRTFGQGTKLEIK is below 4 fold. Could you check?
satisfied
